Molecular target: human Smo (amino acids 181-787) (Homo sapiens)
Each record's class is read off its IC50 using these ranges: bottom (below 20 nM), middle (20 nM to below 60 nM), top (60 nM or more)

Look over these answered cases.
> print(dat)
                                   compound  qualitative.label
1  Cn1c(-c2cc(N3CCc4[nH]ncc4C3)ncc2Cl)nc2ccccc21 [Example A-173]                top
2  Cn1c(-c2cc(N3CCC(O)(c4ccn[nH]4)C3)ncc2Cl)nc2ccccc21 (stereo not drawn) [Example A-105]                top
3  CNC(=O)N1CCN(c2cc(-c3nc4ccccc4n3C)c(Cl)cn2)CC1 [Example A-3]             bottom
4  Cn1c(-c2cc(N3CCOC(c4nc(C5CC5)no4)C3)ncc2Cl)nc2ccccc21 (stereo not drawn) [Example A-76]             middle
5  CN(CCS(C)(=O)=O)c1cc(-c2nc3ccccc3n2C)c(Cl)cn1 [Example A-72]             middle

# next compound below
Given CC(=O)N1CCN(c2cc(-c3nc4ccccc4n3C)c(Cl)cn2)[C@H](C)C1 [Example A-168] , name the class its IC50 places it in.
bottom

###

Biological target: human Smo (amino acids 181-787) (Homo sapiens)
Rule for this label: T means IC50 is less than 40 nM; F means IC50 is at least 40 nM.

Previously resolved entries follow.
> print(dat)
                                   molecule  qualitative.label
1  CC(=O)N1CCN(c2cc(-c3nc4ccccc4n3C)c(Cl)cn2)CC1 [Example A-1]                  T
2  CNC(=O)N1CCN(c2ncc(Cl)c(-c3nc4ccccc4n3C)n2)CC1 [Example C-7]                  T
3  C[C@@H]1CN(c2cc(-c3nc4ccccc4n3C)c(Cl)cn2)CCN1 [Example A-157]                  T
4  COC(=O)N1CCCN(c2cc(-c3nc4ccccc4n3C)ccn2)CC1 [Example A-156]                  T
5  Cn1c(-c2cc(N3CCN(S(C)(=O)=O)CC3)ncc2F)nc2ccccc21 [Example D-6]                  T
6  Cc1ccc(N2CCC(S(C)(=O)=O)CC2)nc1-c1nc2ccccc2n1C [Example E-6]                  F
7  CNC(=O)N1CCN(c2cc(-c3nc4ccccc4n3C)ccn2)CC1 [Example A-144]                  F
8  CC(=O)N1CCCN(c2cc(-c3nc4cccnc4n3C)c(Cl)cn2)CC1 [Example A-39]                  F

Please indicate whether the reported IC50 of Cn1c(-c2cc(N3CC[C@@H](O)C3)ncc2Cl)nc2ccccc21 [Example A-26] is strictly below 40 nM.
F

Does this molecule meet the criterion IC50 < 40 nM? CNC(=O)NC1CN(c2cc(-c3nc4ccccc4n3C)c(Cl)cn2)C1 [Example A-180]
F

###

Target or system human Smo (amino acids 181-787) (Homo sapiens): recorded pIC50 listed per item.
In plain terms, pIC50 is the concentration in mol/L turned into minus its base-10 logarithm.

Observe how each entry below is paired with its result.
> print(dat)
                                   compound  measured.result
1  CC(=O)NC1CCN(c2ccc(Cl)c(-c3nc4ccccc4n3C)n2)CC1             7.80
2  CC(=O)N1CCN(c2cc(-c3nc4ccccc4n3C)c(F)cn2)CC1             7.66
3  Cn1c(-c2nc(N3CCC(S(C)(=O)=O)CC3)ncc2Cl)nc2ccccc21             7.37

GET /values?readout=pIC50&item= Cn1c(-c2ccnc(N3CCC(N4CCOC4=O)CC3)c2)nc2ccccc21
6.39

Requested field: pIC50. Item: Cn1c(-c2cc(NCCS(C)(=O)=O)ncc2Cl)nc2ccccc21
6.54

Query (compound): CC(=O)N1CCN(c2cc(-c3nc4ccccc4[nH]3)c(Cl)cn2)CC1 ; field requested: pIC50
6.72

For the compound shown here, CN(C1CCN(c2cc(-c3nc4ccccc4n3C)c(F)cn2)CC1)S(C)(=O)=O , give the reported pIC50.
8.15

For CNC(=O)c1[nH]nc2c1CN(c1cc(-c3nc4ccccc4n3C)c(Cl)cn1)CC2 , what is its reported pIC50?
6.85

Bench note: what pIC50 did Cn1c(-c2ccnc(N3CCC(O)CC3)c2)nc2ccccc21 show?
7.12

Fill blank: measured pIC50 of the compound Cn1c(-c2cc(N3CCC(O)(CO)CC3)ncc2Cl)nc2ccccc21 is ____.
7.57

Need pIC50, item Cn1c(-c2cc(N3CCc4nnc(C5CC5)n4CC3)ncc2Cl)nc2ccccc21
7.68

###

Record: log10 of IC50 reported on human Smo (amino acids 181-787) (Homo sapiens, UniProt Q99835).
Sequence (Q99835 181-787): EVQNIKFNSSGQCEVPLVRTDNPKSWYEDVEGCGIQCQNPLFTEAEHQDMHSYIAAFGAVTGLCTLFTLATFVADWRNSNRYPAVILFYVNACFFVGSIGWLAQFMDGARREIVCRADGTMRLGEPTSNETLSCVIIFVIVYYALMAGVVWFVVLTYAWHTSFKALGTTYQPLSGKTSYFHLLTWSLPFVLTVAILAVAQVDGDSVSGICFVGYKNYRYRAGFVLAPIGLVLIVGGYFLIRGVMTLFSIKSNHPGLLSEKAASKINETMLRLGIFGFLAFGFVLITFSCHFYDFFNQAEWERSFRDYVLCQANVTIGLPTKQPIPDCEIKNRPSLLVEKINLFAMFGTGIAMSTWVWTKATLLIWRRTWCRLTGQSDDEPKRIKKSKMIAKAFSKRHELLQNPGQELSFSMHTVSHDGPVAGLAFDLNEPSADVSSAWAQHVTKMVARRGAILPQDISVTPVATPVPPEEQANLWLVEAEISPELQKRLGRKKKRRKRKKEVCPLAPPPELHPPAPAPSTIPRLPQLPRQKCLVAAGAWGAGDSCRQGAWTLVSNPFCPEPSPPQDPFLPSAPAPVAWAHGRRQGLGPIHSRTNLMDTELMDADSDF
Use the decimal logarithm of IC50 (nM).

Worked examples, 3 molecules total:
> print(dat)
                                   molecule  quantity.measured  measured.result
1  CCS(=O)(=O)N1CCN(c2cc(-c3nc4ccccc4n3C)c(Cl)cn2)CC1 [Example A-27]      log10 of IC50             1.69
2  CCn1c(-c2cc(N3CCN(C(C)=O)CC3)ncc2Cl)nc2ccccc21 [Example A-214]      log10 of IC50             2.64
3  CN(C1CCN(c2cc(-c3nc4ccccc4n3C)c(Cl)cn2)C1)S(C)(=O)=O (stereo not shown) [Example A-181]      log10 of IC50             1.04

Please look up its log10 of IC50: Cc1cnc(N2CCC(S(C)(=O)=O)CC2)cc1-c1nc2ccccc2n1C [Example E-5]
1.77

log10 of IC50 lookup needed for Cn1c(-c2cc(N3CCOCC(CO)C3)ncc2Cl)nc2ccccc21 (stereo not shown) [Example A-47] , thanks.
0.95

Looking for the measured log10 of IC50 of COC(=O)NC1CCN(c2cc(-c3nc4ccccc4n3C)c(Cl)cn2)C1 (stereo not shown) [Example A-152] , can you help?
1.84

What does the data say about its log10 of IC50? Entry: Cn1c(-c2cc(N3[C@@H]4CC[C@H]3C[C@@H](NS(C)(=O)=O)C4)ncc2Cl)nc2ccccc21 [Example A-193]
1.11

Using the record for CNC(=O)N1CCN(c2ccc(Cl)c(-c3nc4ccccc4n3C)n2)CC1 [Example B-3] , report its log10 of IC50.
1.69

###

Molecular target: human Smo (amino acids 181-787) (Homo sapiens, UniProt Q99835)
Construct: expressed in transfected cells; membrane preparation
Experiment: Smo radioligand competition binding assay (displacement of 3H-PF-03451358 from HEK293 membranes)
Settings: 0.05 μM test compound; displacement of 3H-PF-03451358; read-out: SMO % inh. @ 0.05 μM
Attribute: inhibition at 0.05 µM
Kindly provide the numeric value in % only, without the unit symbol.

> print(dat)
                                   compound  unit.of.measure  measured.result
1  Cn1c(-c2cc(N3CCC(O)(c4cncnc4)C3)ncc2Cl)nc2ccccc21 (centres unmarked) [Example A-128]                %               54
2  CN(C1CCN(c2cc(-c3nc4ccccc4n3C)c(Cl)cn2)CC1)S(C)(=O)=O [Example A-6]                %               96
3  CN(C)CC(=O)N1CCN(c2cc(-c3nc4ccccc4n3C)c(Cl)cn2)CC1 [Example A-192]                %               87
4  CCS(=O)(=O)NC1CCN(c2cc(-c3nc4ccccc4n3C)c(F)cn2)CC1 [Example D-9]                %               99
5  Cn1c(-c2cc(N3[C@@H]4CC[C@H]3CNC4)ncc2Cl)nc2ccccc21 [Example A-194]                %              111
6  Cn1c(-c2cc(NCCS(C)(=O)=O)ncc2Cl)nc2ccccc21 [Example A-167]                %               64
7  CC(=O)NC1CCN(c2cc(-c3nc4ccccc4n3C)c(F)cn2)CC1 [Example D-14]                %               97
8  CC(=O)N1CCN(c2cc(-c3nc4ccccc4n3C)c(Cl)cn2)[C@H](C)C1 [Example A-168]                %               97

// lookup inhibition at 0.05 µM for Cn1c(-c2cc(N3CCC(NS(C)(=O)=O)CC3)ncc2F)nc2ccccc21 [Example D-11]
98

What does the record list as inhibition at 0.05 µM for Cc1ccc(N2CCC(S(C)(=O)=O)CC2)nc1-c1nc2ccccc2n1C [Example E-6] ?
89

What value of measured inhibition at 0.05 µM is listed for Cn1c(-c2cc(N3CCC(C(=O)NCC(C)(C)O)CC3)ncc2Cl)nc2ccccc21 [Example A-212] ?
99
